Values from paper PMC3656107

Biological target: MHC-II DRB1*03:01 (Homo sapiens, UniProt P01903+P01911, A100K/A102G/A103R/A169T/F55Y/I96L/K41T/L162R/M171V/P40S/Q125H/Q178H/Q39Y/R42S/S66N/T106N/T262R/W38E/Y61H)
Sequence (P01903 26-254 limits assumed, other chains not shown): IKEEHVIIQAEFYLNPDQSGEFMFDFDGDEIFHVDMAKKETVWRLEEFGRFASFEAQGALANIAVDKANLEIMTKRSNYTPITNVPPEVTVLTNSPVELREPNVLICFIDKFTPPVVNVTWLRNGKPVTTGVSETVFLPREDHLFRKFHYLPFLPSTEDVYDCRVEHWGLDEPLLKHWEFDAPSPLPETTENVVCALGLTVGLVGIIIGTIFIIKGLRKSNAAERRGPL
Test: Cell-free REVEAL class II binding assay
Details: signal of test peptide as percentage of allele-specific positive control peptide, fluorescence, conformation-specific monoclonal antibody
Known Binding Score of a selection of sequences
Quick note: unit goes after the number.

Look over these answered cases.
{"SEQ TEXT": "MKVTGVTTQGVKSLL [synthetic wild type FVIII 15 mer peptide, region of ns-SNP M2238V]", "Binding Score": "0.0%"}
{"SEQ TEXT": "IARYIRLHPTHYSIR [synthetic wild type FVIII 15 mer peptide]", "Binding Score": "1.0%"}

-- ask Data request, read-out Binding Score, for PENDIEKTDPWFAHR [synthetic wild type FVIII 15 mer peptide, region of ns-SNP R776G]
-- reply 0.0%

-- ask Data request, read-out Binding Score, for RQNVEGSYDGAYAPV [synthetic wild type FVIII 15 mer peptide, region of ns-SNP D1241E]
-- reply 0.0%
